- target_under_test: von Hippel-Lindau disease tumor suppressor/SWI/SNF-related matrix-associated actin-dependent regulator of chromatin subfamily A member 4 (Homo sapiens, UniProt P51532+P40337)
- Sequence (P40337 whole entry, looked up, the tested form may be a part): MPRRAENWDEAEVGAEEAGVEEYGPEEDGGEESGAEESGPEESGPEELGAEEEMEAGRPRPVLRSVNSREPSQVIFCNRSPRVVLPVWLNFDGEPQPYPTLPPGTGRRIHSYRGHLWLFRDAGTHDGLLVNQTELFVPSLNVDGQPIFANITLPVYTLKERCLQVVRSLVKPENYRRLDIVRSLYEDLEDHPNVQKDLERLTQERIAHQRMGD
- Sequence (P51532 whole entry, looked up, the tested form may be a part): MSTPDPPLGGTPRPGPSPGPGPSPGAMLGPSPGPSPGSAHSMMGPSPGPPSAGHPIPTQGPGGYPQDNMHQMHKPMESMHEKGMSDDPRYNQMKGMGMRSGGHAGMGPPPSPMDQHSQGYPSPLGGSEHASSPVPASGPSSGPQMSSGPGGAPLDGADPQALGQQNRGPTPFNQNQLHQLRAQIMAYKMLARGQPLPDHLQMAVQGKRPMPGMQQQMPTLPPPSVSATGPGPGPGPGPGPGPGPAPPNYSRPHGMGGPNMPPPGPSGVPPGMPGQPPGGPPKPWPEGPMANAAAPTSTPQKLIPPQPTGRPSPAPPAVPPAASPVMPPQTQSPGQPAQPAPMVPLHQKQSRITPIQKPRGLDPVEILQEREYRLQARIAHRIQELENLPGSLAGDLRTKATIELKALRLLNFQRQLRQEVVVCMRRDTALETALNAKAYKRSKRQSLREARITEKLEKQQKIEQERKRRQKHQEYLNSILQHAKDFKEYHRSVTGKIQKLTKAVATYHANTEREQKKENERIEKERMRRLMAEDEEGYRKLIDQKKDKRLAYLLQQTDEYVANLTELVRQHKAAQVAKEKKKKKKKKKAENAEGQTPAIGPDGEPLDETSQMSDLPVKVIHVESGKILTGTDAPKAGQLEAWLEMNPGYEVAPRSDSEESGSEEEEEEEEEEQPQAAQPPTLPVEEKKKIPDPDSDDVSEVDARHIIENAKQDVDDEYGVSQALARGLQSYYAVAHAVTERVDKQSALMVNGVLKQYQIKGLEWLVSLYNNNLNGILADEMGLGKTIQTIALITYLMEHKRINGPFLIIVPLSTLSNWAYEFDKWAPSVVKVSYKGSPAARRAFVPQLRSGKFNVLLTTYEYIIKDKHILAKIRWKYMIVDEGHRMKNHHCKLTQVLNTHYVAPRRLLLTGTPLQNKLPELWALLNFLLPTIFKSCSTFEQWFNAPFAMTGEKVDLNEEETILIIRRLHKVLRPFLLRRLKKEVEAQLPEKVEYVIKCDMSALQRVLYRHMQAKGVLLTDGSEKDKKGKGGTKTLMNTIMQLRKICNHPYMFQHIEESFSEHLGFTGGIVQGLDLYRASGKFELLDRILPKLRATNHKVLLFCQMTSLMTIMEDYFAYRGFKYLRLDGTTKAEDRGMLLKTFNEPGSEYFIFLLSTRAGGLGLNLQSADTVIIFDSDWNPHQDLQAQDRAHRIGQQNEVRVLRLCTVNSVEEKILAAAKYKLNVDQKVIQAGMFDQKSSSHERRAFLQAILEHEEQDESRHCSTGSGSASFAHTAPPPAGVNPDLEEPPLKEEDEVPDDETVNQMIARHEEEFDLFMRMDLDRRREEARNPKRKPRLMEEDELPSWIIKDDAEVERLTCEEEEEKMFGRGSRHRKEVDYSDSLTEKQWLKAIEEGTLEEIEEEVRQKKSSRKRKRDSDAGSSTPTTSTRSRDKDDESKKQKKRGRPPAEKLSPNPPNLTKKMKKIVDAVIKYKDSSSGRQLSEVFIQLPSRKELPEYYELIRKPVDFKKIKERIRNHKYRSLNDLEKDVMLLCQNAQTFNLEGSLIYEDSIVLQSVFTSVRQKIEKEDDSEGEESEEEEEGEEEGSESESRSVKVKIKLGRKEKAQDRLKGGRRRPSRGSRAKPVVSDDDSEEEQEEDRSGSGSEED
- assay_details: PROTAC activity at VHL/C-terminal HiBiT fused SMARCA4 in human HeLa cells assessed as induction of SMARCA4 degradation by measuring maximal efficacy incubated for 24 hrs by Nano-Glo HiBiT analysis relative to control
- Format: cell-based

molecule	unit_name	Emax
Cc1ncsc1-c1ccc([C@H](C)NC(=O)[C@@H]2C[C@@H](O)CN2C(=O)[C@@H](NC(=O)CCCCCCCCCCn2cc(-c3cc(-c4ccccc4O)nnc3N)cn2)C(C)(C)C)cc1	%	87
Cc1ncsc1-c1ccc([C@H](C)NC(=O)[C@@H]2C[C@@H](O)CN2C(=O)[C@@H](NC(=O)CCOCCOCCn2cc(-c3cc(-c4ccccc4O)nnc3N)cn2)C(C)C)cc1	%	59
Cc1ncsc1-c1ccc([C@@H](C)NC(=O)[C@H]2C[C@H](O)CN2C(=O)[C@H](NC(=O)C2CCC(N3CCC4(CCC(n5cc(-c6cc(-c7ccccc7O)nnc6N)cn5)CC4)CC3)CC2)C(C)(C)C)cc1 (single isomer, unassigned)	%	72

* * *

As shown below, each of these compounds has a reported DC50 value.
- target_under_test: von Hippel-Lindau disease tumor suppressor/SWI/SNF-related matrix-associated actin-dependent regulator of chromatin subfamily A member 2 (Homo sapiens, UniProt P51531+P40337)
- assay_details: PROTAC activity at VHL/C-terminal HiBiT fused SMARCA2 in human HeLa cells assessed as induction of SMARCA2 degradation incubated for 24 hrs by Nano-Glo HiBiT analysis
- Format: cell-based
- Sequence (P51531 whole entry, one chain of several, the tested form may be a part): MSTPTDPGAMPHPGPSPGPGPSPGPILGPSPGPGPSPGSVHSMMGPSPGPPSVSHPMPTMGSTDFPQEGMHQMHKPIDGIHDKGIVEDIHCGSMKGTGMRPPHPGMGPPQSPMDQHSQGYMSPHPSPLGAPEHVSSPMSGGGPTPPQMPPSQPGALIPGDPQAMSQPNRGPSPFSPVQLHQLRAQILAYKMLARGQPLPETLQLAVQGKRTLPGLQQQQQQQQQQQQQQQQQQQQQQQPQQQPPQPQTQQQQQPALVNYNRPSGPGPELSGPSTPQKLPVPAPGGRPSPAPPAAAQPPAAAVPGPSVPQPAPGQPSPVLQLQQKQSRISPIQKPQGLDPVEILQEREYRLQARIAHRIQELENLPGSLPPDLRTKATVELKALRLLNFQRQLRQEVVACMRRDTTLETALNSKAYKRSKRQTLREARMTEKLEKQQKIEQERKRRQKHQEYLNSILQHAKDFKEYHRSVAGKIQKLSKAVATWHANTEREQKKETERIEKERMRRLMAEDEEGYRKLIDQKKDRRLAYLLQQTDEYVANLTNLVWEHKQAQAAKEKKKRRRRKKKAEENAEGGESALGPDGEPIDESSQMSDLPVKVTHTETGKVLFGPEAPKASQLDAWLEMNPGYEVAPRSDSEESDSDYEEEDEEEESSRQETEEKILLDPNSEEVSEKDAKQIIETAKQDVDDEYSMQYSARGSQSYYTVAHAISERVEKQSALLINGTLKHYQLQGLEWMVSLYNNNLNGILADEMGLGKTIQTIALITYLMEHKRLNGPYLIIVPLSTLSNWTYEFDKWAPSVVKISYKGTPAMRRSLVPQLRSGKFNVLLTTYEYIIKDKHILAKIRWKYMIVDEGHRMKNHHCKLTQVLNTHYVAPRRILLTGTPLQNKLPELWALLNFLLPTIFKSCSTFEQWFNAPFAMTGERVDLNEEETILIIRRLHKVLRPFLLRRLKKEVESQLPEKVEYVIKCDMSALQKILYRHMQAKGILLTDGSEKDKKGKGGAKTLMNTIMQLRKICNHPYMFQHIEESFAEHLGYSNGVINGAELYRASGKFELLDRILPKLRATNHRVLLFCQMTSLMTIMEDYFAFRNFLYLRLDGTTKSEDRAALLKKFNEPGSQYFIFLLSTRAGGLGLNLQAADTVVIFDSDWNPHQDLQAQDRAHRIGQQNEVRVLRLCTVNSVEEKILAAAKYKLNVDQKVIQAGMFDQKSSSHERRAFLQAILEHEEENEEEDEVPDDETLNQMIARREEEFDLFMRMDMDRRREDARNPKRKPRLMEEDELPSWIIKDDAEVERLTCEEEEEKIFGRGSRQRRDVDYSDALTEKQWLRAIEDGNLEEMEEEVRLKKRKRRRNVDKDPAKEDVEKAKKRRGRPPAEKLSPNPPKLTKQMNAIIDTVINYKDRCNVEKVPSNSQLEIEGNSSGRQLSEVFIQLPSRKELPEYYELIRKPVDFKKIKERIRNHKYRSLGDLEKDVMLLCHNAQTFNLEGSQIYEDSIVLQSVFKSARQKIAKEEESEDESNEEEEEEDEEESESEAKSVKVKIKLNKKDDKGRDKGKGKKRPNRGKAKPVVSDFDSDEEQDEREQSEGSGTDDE
measured_attribute: DC50 (nM)

smiles_data	measured_attribute	unit_name	bound_type	numeric_value
Cc1ncsc1-c1ccc([C@H](C)NC(=O)[C@@H]2C[C@@H](O)CN2C(=O)[C@@H](NC(=O)CCCCCCn2cc(-c3cc(-c4ccccc4O)nnc3N)cn2)C(C)(C)C)cc1	DC50	nM	=	16
Cc1ncsc1-c1ccc([C@H](C)NC(=O)[C@@H]2C[C@@H](O)CN2C(=O)[C@@H](NC(=O)CCCCCCCCn2cc(-c3cc(-c4ccccc4O)nnc3N)cn2)C(C)(C)C)cc1	DC50	nM	=	3
Cc1ncsc1-c1ccc([C@H](C)NC(=O)[C@@H]2C[C@@H](O)CN2C(=O)[C@@H](NC(=O)CCOCCOCCn2cc(-c3cc(-c4ccccc4O)nnc3N)cn2)C(C)C)cc1	DC50	nM	=	313
Cc1ncsc1-c1ccc([C@H](C)NC(=O)[C@@H]2C[C@@H](O)CN2C(=O)[C@@H](NC(=O)CCn2cc(-c3cc(-c4ccccc4O)nnc3N)cn2)C(C)(C)C)cc1	DC50	nM	>	1000
Cc1cc([C@H](C(=O)N2C[C@H](O)C[C@H]2C(=O)N[C@@H](CC(=O)NCCCCCCCCCn2cc(-c3cc(-c4ccccc4O)nnc3N)cn2)c2ccc(-c3scnc3C)cc2)C(C)C)on1	DC50	nM	=	71

* * *

- assay_details: Drug concentration in SCID mouse plasma xenografted with human MV4-11 cells at 50 mg/kg, iv measured after 2 hrs by LC-MS/MS method
- Type: ADME, organism-based

smiles_data	concentration at 2 h (ng/mL)
Cc1ncsc1-c1ccc([C@H](C)NC(=O)[C@@H]2C[C@@H](O)CN2C(=O)[C@@H](NC(=O)[C@H]2CC[C@H](CN3CC4(CCC(n5cc(-c6cc(-c7ccccc7O)nnc6N)cn5)CC4)C3)CC2)C(C)(C)C)cc1	2730

* * *

- target_under_test: von Hippel-Lindau disease tumor suppressor/SWI/SNF-related matrix-associated actin-dependent regulator of chromatin subfamily A member 4 (Homo sapiens, UniProt P51532+P40337)
- assay_details: PROTAC activity at VHL/C-terminal HiBiT fused SMARCA4 in human HeLa cells assessed as induction of SMARCA4 degradation by measuring maximal efficacy incubated for 24 hrs by Nano-Glo HiBiT analysis relative to control
- Assay type: cell-based
Recorded Emax by entry
measured_attribute: Emax (%)

smiles_data	measured_attribute	unit_name	numeric_value
Cc1ncsc1-c1ccc([C@H](C)NC(=O)[C@@H]2C[C@@H](O)CN2C(=O)[C@@H](NC(=O)CCCCCCCCCCCn2cc(-c3cc(-c4ccccc4O)nnc3N)cn2)C(C)(C)C)cc1	Emax	%	96
Cc1ncsc1-c1ccc([C@H](C)NC(=O)[C@@H]2C[C@@H](O)CN2C(=O)[C@@H](NC(=O)CCCCCCCCn2cc(-c3cc(-c4ccccc4O)nnc3N)cn2)C(C)(C)C)cc1	Emax	%	93
Cc1ncsc1-c1ccc([C@H](C)NC(=O)[C@@H]2C[C@@H](O)CN2C(=O)[C@@H](NC(=O)CCCCn2cc(-c3cc(-c4ccccc4O)nnc3N)cn2)C(C)(C)C)cc1	Emax	%	57

* * *

Imax values, listed per item
- Test system: SK-MEL-5
- assay_details: Antiproliferative activity against SMARCA4-deficient human SK-MEL-5 cells assessed as cell growth inhibition by measuring maximal efficacy measured after 7 days by WST-8 assay relative to control
- Assay type: functional
- condition_description: time 7 day

smiles_data	unit_name	Imax
Cc1ncsc1-c1ccc([C@H](C)NC(=O)[C@@H]2C[C@@H](O)CN2C(=O)[C@@H](NC(=O)CCCCCCCCCn2cc(-c3cc(-c4ccccc4O)nnc3N)cn2)C(C)(C)C)cc1	%	95
Cc1ncsc1-c1ccc([C@H](C)NC(=O)[C@@H]2C[C@@H](O)CN2C(=O)[C@@H](c2cc(N3CCC(CN4CCC(O[C@H]5C[C@H](Oc6cccc(CN7C8CCC7CN(c7cc(-c9ccccc9O)nnc7N)C8)c6)C5)CC4)CC3)no2)C(C)C)cc1	%	96
Cc1ncsc1-c1ccc([C@H](CC[C@H](C)CCN2CCC(c3ccc4c(c3)n(C3CCCC3)c3nc(=O)c5c(Br)cccc5n43)CC2)NC(=O)[C@@H]2C[C@@H](O)CN2C(=O)[C@@H](NC(=O)C2(F)CC2)C(C)(C)C)cc1	%	96
Cc1ncsc1-c1ccc([C@H](C)NC(=O)[C@@H]2C[C@@H](O)CN2C(=O)[C@@H](NC(=O)[C@H]2CC[C@H](CN3CC4(CCC(n5cc(-c6cc(-c7ccccc7O)nnc6N)cn5)CC4)C3)CC2)C(C)(C)C)cc1	%	95

* * *

- assay_details: Drug concentration in SCID mouse plasma xenografted with human MV4-11 cells at 50 mg/kg, iv measured after 96 hrs by LC-MS/MS method
- Format: ADME, organism-based

smiles_data	unit_name	concentration at 96 h
Cc1ncsc1-c1ccc([C@H](C)NC(=O)[C@@H]2C[C@@H](O)CN2C(=O)[C@@H](NC(=O)[C@H]2CC[C@H](CN3CC4(CCC(n5cc(-c6cc(-c7ccccc7O)nnc6N)cn5)CC4)C3)CC2)C(C)(C)C)cc1	ng/mL	19.6

* * *

- target_under_test: von Hippel-Lindau disease tumor suppressor/SWI/SNF-related matrix-associated actin-dependent regulator of chromatin subfamily A member 2 (Homo sapiens, UniProt P51531+P40337)
- assay_details: PROTAC activity at VHL/C-terminal HiBiT fused SMARCA2 in human HeLa cells assessed as induction of SMARCA2 degradation by measuring maximal efficacy incubated for 24 hrs by Nano-Glo HiBiT analysis relative to control
- Format: cell-based
- Sequence (P51531 whole entry, looked up, one chain of several, the tested form may be a part): as the sequence (P51531 whole entry, one chain of several, the tested form may be a part) above
measured_attribute: Emax (%)

compound	numeric_value
Cc1ncsc1-c1ccc([C@H](C)NC(=O)[C@@H]2C[C@@H](O)CN2C(=O)[C@@H](NC(=O)CCCCCCCCn2cc(-c3cc(-c4ccccc4O)nnc3N)cn2)C(C)(C)C)cc1	95
Cc1ncsc1-c1ccc([C@H](C)NC(=O)[C@@H]2C[C@@H](O)CN2C(=O)[C@@H](NC(=O)[C@H]2CC[C@H](CN3CC4(CCC(n5cc(-c6cc(-c7ccccc7O)nnc6N)cn5)CC4)C3)CC2)C(C)(C)C)cc1	91
Cc1ncsc1-c1ccc([C@H](C)NC(=O)[C@@H]2C[C@@H](O)CN2C(=O)[C@@H](NC(=O)COCCOCCOCCn2cc(-c3cc(-c4ccccc4O)nnc3N)cn2)C(C)C)cc1	71
Cc1cc([C@H](C(=O)N2C[C@H](O)C[C@H]2C(=O)N[C@@H](CC(=O)NCCCCCCCCCCn2cc(-c3cc(-c4ccccc4O)nnc3N)cn2)c2ccc(-c3scnc3C)cc2)C(C)C)on1	95
Cc1cc([C@H](C(=O)N2C[C@H](O)C[C@H]2C(=O)N[C@@H](CC(=O)NCCCCCCCCCn2cc(-c3cc(-c4ccccc4O)nnc3N)cn2)c2ccc(-c3scnc3C)cc2)C(C)C)on1	94
Cc1ncsc1-c1ccc([C@H](C)NC(=O)[C@@H]2C[C@@H](O)CN2C(=O)[C@@H](NC(=O)CCCCCCn2cc(-c3cc(-c4ccccc4O)nnc3N)cn2)C(C)(C)C)cc1	89
Cc1ncsc1-c1ccc([C@@H](C)NC(=O)[C@H]2C[C@H](O)CN2C(=O)[C@H](NC(=O)C2CCC(N3CCC4(CCC(n5cc(-c6cc(-c7ccccc7O)nnc6N)cn5)CC4)CC3)CC2)C(C)(C)C)cc1 (single isomer, unassigned)	90
